- EXPERIMENT: Pharmacokinetic analysis in mouse plasma and brain after a single i.p. injection
- Type: in vivo
- CONDITION SUMMARY: both sexes, brain, intraperitoneal, wildtype mice P21-28, 10 mg/kg i.p., 90 min, n = 4, read-out: Brain concentration, average
METRIC NAME: concentration at 90 min (ng/g)
Kindly provide the numeric value in ng/g only, without the unit symbol.

// COc1ccc(CNCCC(c2ccccc2)c2ccc3c(c2)OCO3)cc1 (stereo not shown) [CID2921524] : concentration at 90 min value = 1310

----------
- EXPERIMENT: Pharmacokinetic analysis in mouse plasma and brain after a single i.p. injection
- Type: in vivo
- CONDITION SUMMARY: both sexes, plasma, intraperitoneal, wildtype mice P21-28, 10 mg/kg i.p., 45 min, n = 4
METRIC NAME: concentration at 45 min (ng/mL)
Kindly provide the numeric value in ng/mL only, without the unit symbol.

// COc1ccc(CNCCC(c2ccccc2)c2ccc3c(c2)OCO3)cc1 (stereo not shown) [CID2921524] : concentration at 45 min value = 1400
